In this section, each of the compounds is paired with its reported clearance.
- testProtocol: Clearance in Sprague-Dawley rat at 1.5 mg/kg, iv and measured upto 24 hrs by LC-MS/MS analysis
- Type: ADME, organism-based
- testContext: in vivo
Answer format: value, then unit.

[
  {
    "compound": "Cc1cc(CN2CCC2)cc(F)c1-c1cc2c(-c3cnn(C)c3)n[nH]c2cn1",
    "reading": "102 mL/min/kg"
  },
  {
    "compound": "CNC(C)c1cc(C)c(-c2cc3c(-c4cnn(C)c4)n[nH]c3cn2)c(F)c1 (stereo not given)",
    "reading": "93.3 mL/min/kg"
  },
  {
    "compound": "CNCc1cc(C)c(-c2cc3c(-c4cnn(C)c4)n[nH]c3cn2)c(F)c1",
    "reading": "118 mL/min/kg"
  },
  {
    "compound": "Cc1cc(C2CCCCN2)cc(F)c1-c1cc2c(-c3cnn(C)c3)n[nH]c2cn1 (stereo not given)",
    "reading": "80 mL/min/kg"
  }
]

I would be grateful if you could share the reported clearance for `CCNCc1cc(C)c(-c2cc3c(-c4cnn(C)c4)n[nH]c3cn2)c(F)c1` . 102 mL/min/kg
